- TESTED TARGET: T1, human CD3 on CD3+ Jurkat cells (human, UniProt P07766 23-207)
- T1 construct: whole, on cells; Native CD3 complex on cells; the other CD3 chains are not specified for this assay; also called Human CD3+ Jurkat
- T1 sequence (P07766 23-207): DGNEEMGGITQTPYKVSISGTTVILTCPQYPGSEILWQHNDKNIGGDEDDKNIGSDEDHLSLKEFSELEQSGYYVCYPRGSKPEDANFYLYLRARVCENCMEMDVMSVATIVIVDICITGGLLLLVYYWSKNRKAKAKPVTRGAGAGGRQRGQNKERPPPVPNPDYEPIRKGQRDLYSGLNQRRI
- PROTOCOL TEXT: flow cytometry on CD3+ Jurkat cells, ratio of MFI at pH 6.0 to pH 7.4
PARAMETER: MFI pH 6.0/MFI pH 7.4
Answers are plain numbers.

[[record]]
binder = "SAD10318_P01_G03 (ADI-48590) (antibody, V domains shown, IgG; also called Ab91) VH: QVQLVQSGAEVKKPGASVKVSCKASGFNIKDYYMHWVRQAPGQRLEWMGWIDLENANTIYDAKFQGRVTITRDTSASTAYMELSSLRSEDTAVYYCAHDAYGHYFYDVWGQGTLVTVSS VL: DIVMTQSPDSLAVSLGERATINCKSSQSLLNAHTGHNYLAWYQQKPGQPPKLLIYWASTRESGVPDRFSGSGSGTDFTLTISSLQAEDVAVYYCKQSYHHRTFGGGTKVEIK"
parameter = "MFI pH 6.0/MFI pH 7.4"
numeric_value = 60.3

[[record]]
binder = "SAD10318_P01_F01 (ADI-48578) (antibody, V domains shown, IgG; also called Ab204) VH: QVQLVQSGAEVKKPGASVKVSCKASGFNIKDYYMHWVRQAPGQRLEWMGWIDLENANTIYDAKFQGRVTITRDTSASTAYMELSSLRSEDTAVYYCARDAYGHYFYDHWGQGTLVTVSS VL: DIVMTQSPDSLAVSLGERATINCKSSQSLLNAHTGKNHLAWYQQKPGQPPKLLIYWASTRESGVPDRFSGSGSGTDFTLTISSLQAEDVAVYYCKQSYHHRTFGGGTKVEIK"
parameter = "MFI pH 6.0/MFI pH 7.4"
numeric_value = 11.7


Now for a further binder.
Fill in the blank: the reported MFI pH 6.0/MFI pH 7.4 of SAD10318_P02_C04 (ADI-48592) (antibody, V domains shown, IgG; also called Ab125) VH: QVQLVQSGAEVKEPGASVKVSCKASGFNIKDYYMHWVRQAPGQRLEWMGWIDLENANTIYDAKFQGRVTITRDTSASTAYMELSSLRSEDTAVYYCARDAHHRYFYDVWGQGTLVTVSS VL: DIVMTQSPDSLAVSLGERATINCKSSQSLLNAHTGHNYLAWYQQKPGQPPKLLIYWASTRESGVPDRFSGSGSGTDFTLTISSLQAEDVAVYYCKQSYSRRTFGGGTKVEIK is ____.
1.9
